These data points were gathered from patent US20260158009A1.

# pIC50 listing for each entry below
# STUDY_SYSTEM: hRIPK1 (aa 1-375) fusion protein (Homo sapiens, UniProt Q13546)
# Construct: hRIPK1 (aa 1-375) fusion protein
# Sequence (Q13546 1-375): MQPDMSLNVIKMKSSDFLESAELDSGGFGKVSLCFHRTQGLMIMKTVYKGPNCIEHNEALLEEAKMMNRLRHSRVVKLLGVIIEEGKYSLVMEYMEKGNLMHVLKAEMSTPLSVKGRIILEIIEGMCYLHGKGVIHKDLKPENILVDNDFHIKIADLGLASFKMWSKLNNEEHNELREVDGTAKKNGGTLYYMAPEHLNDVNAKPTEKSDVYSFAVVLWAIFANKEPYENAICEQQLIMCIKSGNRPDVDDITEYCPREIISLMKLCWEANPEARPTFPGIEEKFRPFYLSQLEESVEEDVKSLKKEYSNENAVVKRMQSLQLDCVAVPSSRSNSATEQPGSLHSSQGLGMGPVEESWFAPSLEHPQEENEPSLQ
# ASSAY_METHOD_TEXT: ADP-Glo kinase assay: catalytic activity of RIPK1 (autophosphorylation, conversion of ATP to ADP)
# Method: The catalytic activity of RIPK1 was measured by monitoring the conversion of Adenosine triphosphate (ATP) to Adenosine diphosphate (ADP) due to autophosphorylation using an ADP-Glo kinase kit (Promega, catalog no. V9104). […]
pIC50 field: float, defined as -log10 of concentration (mol/L).

{"columns": ["SMILES_INPUT", "STUDY_SYSTEM", "pIC50"],
 "data": [
  ["Cc1nc2cc(C[C@H]3CC[C@H](C(=O)N4OCC[C@H]4c4cnccn4)CC3)ccn2n1", "hRIPK1 (aa 1-375) fusion protein (Homo sapiens, UniProt Q13546)", 7.44],
  ["N#Cc1cc(F)cc([C@@H]2CCON2C(=O)[C@H]2CC[C@H](Cc3ccc4c(c3)C(=O)NC4)CC2)c1", "hRIPK1 (aa 1-375) fusion protein (Homo sapiens, UniProt Q13546)", 7.66],
  ["Cc1ncn(C[C@H]2CC[C@H](C(=O)N3OCC[C@H]3c3cc(F)cc(F)c3)CC2)c1C#N", "hRIPK1 (aa 1-375) fusion protein (Homo sapiens, UniProt Q13546)", 7.47],
  ["CNC(=O)c1cc(F)cc(C[C@H]2CC[C@H](C(=O)N3OCC[C@H]3c3cc(F)cc(F)c3)CC2)c1", "hRIPK1 (aa 1-375) fusion protein (Homo sapiens, UniProt Q13546)", 8.40]
]}

Q: Item `Cc1ncc(C[C@H]2CC[C@H](C(=O)N3OCC[C@H]3c3cc(F)cc(C#N)c3)CC2)cc1C#N` has what recorded pIC50?
A: 7.92

Q: Try this compound next: `O=C([C@H]1CC[C@H](Cc2cc(F)cc(CCO)c2)CC1)N1OCC[C@H]1c1cc(F)cc(F)c1`
A: 7.80

Q: Try this compound next: `N#Cc1cc(F)cc([C@@H]2CCON2C(=O)[C@H]2CC[C@H](Cn3ncc4ncc(C(N)=O)cc43)CC2)c1`
A: 7.40
